clearance: recorded values
- test.description: Plasma clearance upon i.v. dose of 1 mg/kg in rats
- Format: ADME, organism-based
- Design: dose 1 mg/kg, route intravenous
- run.conditions: rat, iv
recorded.endpoint: clearance (mL/min/kg)

[[record]]
item_smiles = "CC(C)Oc1ccc(-c2nc(-c3ccc(CN4CC(C(=O)O)C4)cc3)no2)cc1"
reported_value = 4.1

[[record]]
item_smiles = "CC(C)Cc1ccc(-c2nc(-c3ccc(CN4CC(C(=O)O)C4)cc3)no2)cc1"
reported_value = 4.1

[[record]]
item_smiles = "CCCc1ccc(-c2nc(-c3ccc(CN4CC(C(=O)O)C4)cc3)no2)cc1"
reported_value = 32

[[record]]
item_smiles = "O=C(O)C1CN(Cc2ccc(-c3noc(-c4ccc(C5CCCC5)cc4)n3)cc2)C1"
reported_value = 70

[[record]]
item_smiles = "O=C(O)C1CN(Cc2ccc(-c3noc(-c4ccc(CCC(F)(F)F)cc4)n3)cc2)C1"
reported_value = 5.3

[[record]]
item_smiles = "O=C(O)C1CN(Cc2ccc(-c3noc(-c4ccc(C5CCCCC5)cc4)n3)cc2)C1"
reported_value = 51

[[record]]
item_smiles = "O=C(O)C1CN(Cc2ccc(-c3noc(-c4ccc([C@@H]5CCC(F)(F)C5)cc4)n3)cc2)C1"
reported_value = 5.8

[[record]]
item_smiles = "O=C(O)C1CN(Cc2ccc(-c3noc(-c4ccc([C@H]5CCC(F)(F)C5)cc4)n3)cc2)C1"
reported_value = 10

[[record]]
item_smiles = "O=C(O)C1CN(Cc2ccc(-c3noc(-c4ccc(-c5ccccc5)cc4)n3)cc2)C1"
reported_value = 2.9


* * *

- test.description: Terminal half life upon i.v. dose of 1 mg/kg in rats
- Type: ADME, organism-based
- Set-up: dose 1 mg/kg, route intravenous
- run.conditions: rat, in vivo, iv
half-life: recorded values
recorded.endpoint: half-life (h)

[[record]]
item_smiles = "CC(C)Cc1ccc(-c2nc(-c3ccc(CN4CC(C(=O)O)C4)cc3)no2)cc1"
recorded_endpoint = "half-life"
unit_abbreviation = "h"
reported_value = 8.5

[[record]]
item_smiles = "O=C(O)C1CN(Cc2ccc(-c3noc(-c4ccc(C5CCCCC5)cc4)n3)cc2)C1"
recorded_endpoint = "half-life"
unit_abbreviation = "h"
reported_value = 1.2

[[record]]
item_smiles = "CCCc1ccc(-c2nc(-c3ccc(CN4CC(C(=O)O)C4)cc3)no2)cc1"
recorded_endpoint = "half-life"
unit_abbreviation = "h"
reported_value = 0.8

[[record]]
item_smiles = "O=C(O)C1CN(Cc2ccc(-c3noc(-c4ccc([C@@H]5CCC(F)(F)C5)cc4)n3)cc2)C1"
recorded_endpoint = "half-life"
unit_abbreviation = "h"
reported_value = 6.6


* * *

- target: Sphingosine 1-phosphate receptor 1 (Homo sapiens)
- Sequence (P21453 whole entry): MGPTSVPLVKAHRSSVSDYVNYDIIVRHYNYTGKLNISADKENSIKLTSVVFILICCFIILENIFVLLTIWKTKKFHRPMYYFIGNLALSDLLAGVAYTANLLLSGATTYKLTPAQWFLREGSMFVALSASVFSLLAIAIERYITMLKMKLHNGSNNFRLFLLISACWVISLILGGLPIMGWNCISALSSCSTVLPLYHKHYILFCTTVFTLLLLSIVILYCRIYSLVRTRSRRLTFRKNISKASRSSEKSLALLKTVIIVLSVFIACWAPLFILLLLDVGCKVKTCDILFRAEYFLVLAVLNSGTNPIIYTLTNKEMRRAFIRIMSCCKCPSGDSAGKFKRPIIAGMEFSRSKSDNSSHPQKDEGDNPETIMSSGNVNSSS
- test.description: Concentration required for displacement of [33P]-labeled S1P from human sphingosine 1-phosphate receptor 1 expressed in CHO cells
pIC50: −log10 of the molar value.
recorded.endpoint: pIC50

[[record]]
item_smiles = "O=C(O)C1CN(Cc2ccc(-c3noc(-c4ccc([C@@H]5CCC(F)(F)C5)cc4)n3)cc2)C1"
target = "Sphingosine 1-phosphate receptor 1 (Homo sapiens)"
recorded_endpoint = "pIC50"
reported_value = 9.10

[[record]]
item_smiles = "CC(C)(C)c1ccc(-c2nnc(-c3ccc(CN4CC(C(=O)O)C4)cc3)o2)cc1"
target = "Sphingosine 1-phosphate receptor 1 (Homo sapiens)"
recorded_endpoint = "pIC50"
reported_value = 7.00

[[record]]
item_smiles = "CC(C)Oc1ccc(-c2nc(-c3ccc(CN4CC(C(=O)O)C4)cc3)no2)cc1"
target = "Sphingosine 1-phosphate receptor 1 (Homo sapiens)"
recorded_endpoint = "pIC50"
reported_value = 8.74

[[record]]
item_smiles = "CCCCc1ccc(-c2nc(-c3ccc(CN4CC(C(=O)O)C4)cc3)no2)cc1"
target = "Sphingosine 1-phosphate receptor 1 (Homo sapiens)"
recorded_endpoint = "pIC50"
reported_value = 8.54

[[record]]
item_smiles = "CCCCCCc1ccc(-c2nc(-c3ccc(CN4CC(C(=O)O)C4)cc3)no2)cc1"
target = "Sphingosine 1-phosphate receptor 1 (Homo sapiens)"
recorded_endpoint = "pIC50"
reported_value = 7.54

[[record]]
item_smiles = "O=C(O)C1CN(Cc2ccc(-c3noc(-c4ccc(C5CCC5)cc4)n3)cc2)C1"
target = "Sphingosine 1-phosphate receptor 1 (Homo sapiens)"
recorded_endpoint = "pIC50"
reported_value = 8.66

